# Test system: 996289-038-R-J1-PDC complex spheroid viability;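 also: spheroids exposed to the agents for 7 days before readout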
# Method notes: Anticancer human tumor 996289-038-R-J1-PDC patient-derived colon adenocarcinoma cell line growth inhibition [CLK]; active = viability on the fitted dose curve at most 10% of control; inactive = the rest
# Condition description: second compound 1 µM; first compound 0.316 µM
Lab note: assign the record to one of active, inactive

Past entries and their recorded results:
Compound	Answer label
CCc1c2c(nc3ccc(O)cc13)-c1cc3c(c(=O)n1C2)COC(=O)[C@]3(O)CC + CNC(=O)c1ccc(Nc2nc(OC3CCCC3)c3c(-c4ccc5nc(C)oc5c4)c[nH]c3n2)c(OC)c1	inactive
CC(Nc1ccc2c(c1)OCCn1cc(N3C(=O)OCC3C(F)F)nc1-2)C(N)=O (stereo not given) + CNC(=O)c1ccc(Nc2nc(OC3CCCC3)c3c(-c4ccc5nc(C)oc5c4)c[nH]c3n2)c(OC)c1	inactive
O=c1[nH]cc(F)c(=O)[nH]1 + CNC(=O)c1ccc(Nc2nc(OC3CCCC3)c3c(-c4ccc5nc(C)oc5c4)c[nH]c3n2)c(OC)c1	inactive
COc1c(OCCCN2CCOCC2)ccc2c3n(c(=NC(=O)c4cnc(N)nc4)nc12)CCN3 + CN1CCN(c2cc(C(=O)Nc3cc4cc(-c5cnn(C)c5)ccc4cn3)ccn2)CC1	active

Now look at this one.
Outcome? COC1C=CCC(C)C(C)S(=O)(=O)NC(=O)c2ccc3c(c2)N(CC2CCC21)CC1(CCCc2cc(Cl)ccc21)CO3 (stereo not given) + CNC(=O)c1ccc(Nc2nc(OC3CCCC3)c3c(-c4ccc5nc(C)oc5c4)c[nH]c3n2)c(OC)c1
inactive
